molecular target: human recombinant P2X7 receptor (Homo sapiens (Human)); assay: YO-PRO assay: P2X7 receptor antagonistic activity; conditions: HEK cells expressing human P2X7
Sequence (Q99572 whole entry): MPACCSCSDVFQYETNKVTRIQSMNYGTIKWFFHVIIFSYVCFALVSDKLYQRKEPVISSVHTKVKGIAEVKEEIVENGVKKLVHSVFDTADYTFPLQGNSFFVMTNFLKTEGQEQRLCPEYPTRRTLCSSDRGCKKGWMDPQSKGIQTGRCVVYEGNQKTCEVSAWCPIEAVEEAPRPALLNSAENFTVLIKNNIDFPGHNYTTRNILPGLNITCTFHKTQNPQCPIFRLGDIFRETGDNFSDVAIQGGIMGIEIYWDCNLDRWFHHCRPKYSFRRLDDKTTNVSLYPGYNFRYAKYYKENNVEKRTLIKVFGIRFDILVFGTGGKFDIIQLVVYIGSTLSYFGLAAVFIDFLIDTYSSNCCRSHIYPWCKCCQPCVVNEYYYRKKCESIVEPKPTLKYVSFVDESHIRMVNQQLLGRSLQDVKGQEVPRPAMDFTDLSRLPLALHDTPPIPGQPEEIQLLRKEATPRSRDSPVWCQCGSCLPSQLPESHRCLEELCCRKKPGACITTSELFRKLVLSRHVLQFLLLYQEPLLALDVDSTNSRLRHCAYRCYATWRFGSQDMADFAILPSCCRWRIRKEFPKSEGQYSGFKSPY
Readout kind: pIC50
Give bare numbers, as −log10 of the molar value.

Cc1ccnc2c1C(NC(=O)Cc1cccc(C(F)(F)F)c1Cl)CO2 (racemic); 7.43
N#Cc1ccc(CC(=O)NC2COc3ncccc32)c(Cl)c1 (racemic); 6.91
Cc1cc(Cl)cc(Cl)c1CC(=O)NC1CCOc2ncccc21 (racemic) [Example 8]; 7.37

Hey, quick one: what's pIC50 for each of these?
1. O=C(NC1CCOc2ncccc21)C1(c2ccc(F)cc2Cl)CCCC1 (racemic)
2. O=C(Cc1ccc(F)cc1F)NC1CCOc2ncccc21 (racemic)
3. O=C(Cc1ccc(Cl)cc1Cl)NC1COc2c1ccnc2Cl (racemic)

Result:
1: 6.41; 2: 5.77; 3: 7.28
